test system: Scirpus juncoides; assay: Test Example 2: herbicidal effect test by treatment during growing period in paddy rice cultivation (seven days after seeding); assay type: in vivo; settings: 120 g/10a active ingredient, assessed 14 days after treatment, dry weight vs untreated area
Test Readout: Herbicidal rate (%) Scirpus juncoides
Numbers only; they are read as %.

Observe how each entry below is paired with its result.
Compound	Test Readout	Measured Value
Cc1c(Cc2ccccc2N(C(=O)OCC(C)C)S(=O)(=O)C(F)(F)F)c(=O)on1C(C)(C)C	Herbicidal rate (%) Scirpus juncoides	90
Cc1c(Cc2ccccc2N(S(=O)(=O)C(F)(F)F)S(=O)(=O)C(F)(F)F)c(=O)on1C(C)c1ccccc1Cl (stereo not shown)	Herbicidal rate (%) Scirpus juncoides	40
CCCOC(=O)N(c1ccccc1Cc1c(C)n(C(C)COC)oc1=O)S(=O)(=O)C(F)(F)F (stereo not shown)	Herbicidal rate (%) Scirpus juncoides	90

Please turn your attention to the following entry.
Problem: Look at this compound and give its reported Herbicidal rate (%) Scirpus juncoides. Cc1c(Cc2cc(F)ccc2NS(=O)(=O)C(F)(F)F)c(=O)on1Cc1ccccc1
Solution: 70

// provenance: patent US11109593B2
